Target: SGK3 (Homo sapiens)
Sequence (Q96BR1 1-496): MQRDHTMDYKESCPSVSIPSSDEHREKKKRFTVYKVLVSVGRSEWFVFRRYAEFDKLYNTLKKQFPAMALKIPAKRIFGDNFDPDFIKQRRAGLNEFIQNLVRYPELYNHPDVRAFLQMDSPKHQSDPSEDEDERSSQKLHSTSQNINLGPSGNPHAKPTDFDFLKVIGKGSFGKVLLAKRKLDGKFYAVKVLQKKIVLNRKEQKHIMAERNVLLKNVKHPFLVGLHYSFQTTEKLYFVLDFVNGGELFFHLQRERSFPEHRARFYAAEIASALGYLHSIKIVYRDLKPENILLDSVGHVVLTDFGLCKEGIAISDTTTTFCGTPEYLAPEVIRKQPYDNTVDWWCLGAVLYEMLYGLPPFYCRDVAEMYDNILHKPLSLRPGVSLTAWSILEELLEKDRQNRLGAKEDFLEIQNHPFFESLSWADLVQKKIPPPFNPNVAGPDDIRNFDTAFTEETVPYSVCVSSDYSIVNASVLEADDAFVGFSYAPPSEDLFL
Experiment: SGK3 degradation in HEK293 cells, immunoblot
Assay type: cell-based
Set-up: reduced endogenous SGK isoform or S6K1 expression when administered to HEK293 cells for 48 h; endogenous in cells; host or cells: HEK293
Conditions: HEK293, 48 h, 0.1 μM, Figure 2
test readout: remaining activity at 0.1 µM (%)
Respond with the bare value in %.

1. Cc1ccc(F)c(S(=O)(=O)Nc2ccc(-c3nc(OC[C@H]4CN(CCCCCCOCCCCCCOCC(=O)N[C@H](C(=O)N5C[C@H](O)C[C@H]5C(=O)NCc5ccc(-c6scnc6C)cc5)C(C)(C)C)CCO4)c4cn[nH]c4n3)cc2)c1: 54
2. COc1ccc(Cl)c(S(=O)(=O)Nc2ccc(-c3nc(OC[C@H]4CN(CCCCCCOCCOCCOCCOCC(=O)N[C@H](C(=O)N5C[C@H](O)C[C@H]5C(=O)NCc5ccc(-c6scnc6C)cc5)C(C)(C)C)CCO4)c4c(C)n[nH]c4n3)cc2)c1: 41
3. Cc1ccc(F)c(S(=O)(=O)Nc2ccc(-c3nc(OC[C@H]4CN(CCCCCCOCCOCCOCC(=O)N[C@H](C(=O)N5C[C@H](O)C[C@H]5C(=O)NCc5ccc(-c6scnc6C)cc5)C(C)(C)C)CCO4)c4cn[nH]c4n3)cc2)c1: 34

Input line: Which remaining activity at 0.1 µM is reported for this compound? Cc1ccc(F)c(S(=O)(=O)Nc2ccc(-c3nc(OC[C@H]4CN(CCOCCOCCOCCOCCOCC(=O)N[C@H](C(=O)N5C[C@H](O)C[C@H]5C(=O)NCc5ccc(-c6scnc6C)cc5)C(C)(C)C)CCO4)c4cn[nH]c4n3)cc2)c1
Output line: 95
